Hey, just so you know, these numbers are from patent EP1101492A1.

Tested on: guinea pig experimental bronchial asthma models
assay_explanation: Experimental bronchial asthma model (ovalbumin inhalation): airway resistance and asthmatic death;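 also: female Std:Hartley guinea pigs sensitized by inhaling nebulized ovalbumin once daily for 8 consecutive days, 8 to 11 animals per group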
condition_summary: test compounds 15 mg/kg s.c. (Compound No. 114: 30 mg/kg), prednisolone 10 mg/kg orally, 24 and 2 hours prior to elicitation; vs solvent control
// % Amelioration in Airway Resistance, 6 Hours after Elicitation lookup, one value per entry

Lookup: Value lookup for % Amelioration in Airway Resistance, 6 Hours after Elicitation; key = `CC(=O)O.CNC(=O)[C@H](Cc1ccc(NC(=N)N)cc1)NC(=O)[C@@H](CC(=O)NO)CC(C)C`
Found: 102.2%

Lookup: Value lookup for % Amelioration in Airway Resistance, 6 Hours after Elicitation; key = CNC(=O)[C@H](CCCCN)NC(=O)[C@H](CC(C)C)C(CCCc1ccc(C(=O)OC)cc1)C(=O)NO (single isomer, unassigned)
Found: 63.6%

Lookup: Value lookup for % Amelioration in Airway Resistance, 6 Hours after Elicitation; key = CNC(=O)C(CCCNC(=N)N)NC(=O)C(CC(C)C)C(Cc1ccc(CN2C(=O)c3ccccc3C2=O)cc1)C(=O)NO (single isomer, unassigned)
Found: 56.3%

Lookup: Value lookup for % Amelioration in Airway Resistance, 6 Hours after Elicitation; key = `CC(=O)O.CC(C)C[C@H](C(=O)NO)[C@@H](CC(C)C)C(=O)N[C@@H](Cc1ccc(CN)cc1)C(=O)NCCC(=O)O`
Found: 55.2%

Lookup: Value lookup for % Amelioration in Airway Resistance, 6 Hours after Elicitation; key = `CNC(=O)[C@H](Cc1ccc(CN)cc1)NC(=O)[C@H](CC(C)C)[C@@H](CCCc1ccccc1)C(=O)NO.Cl`
Found: 49.4%

Lookup: Value lookup for % Amelioration in Airway Resistance, 6 Hours after Elicitation; key = C[C@]12C=CC(=O)C=C1CC[C@@H]1[C@@H]2[C@@H](O)C[C@@]2(C)[C@H]1CC[C@]2(O)C(=O)CO [Prednisolone, reference compound]
Found: 14.8%

Next item in the queue.
Lookup: Value lookup for % Amelioration in Airway Resistance, 6 Hours after Elicitation; key = CC(C)C[C@@H](C(=O)N[C@@H](Cc1ccc(CN)cc1)C(=O)O)C(CCCc1ccccc1)C(=O)NO.Cl (mixture of isomers)
Found: 69.4%

###

assay_explanation: Body weight gain in mice
condition_summary: test compounds 60 mg/kg s.c., prednisolone 10 mg/kg i.p., once a day for 6 days (Days 0-5); average ± standard deviation; non-administered 0.50± 0.23
Where Body Weight Gain, Observation Day 5 equals or exceeds 0.8, the correct label is 1 (yes); where it does not, the label is 0 (no).

Lookup: Is Body Weight Gain, Observation Day 5 for CNC(=O)[C@H](Cc1ccc(NC(=N)N)cc1)NC(=O)[C@H](CC(C)C)C(CCCc1ccccc1)C(=O)NO (single isomer, unassigned) at or above 0.8?
Found: 0 (no)

Lookup: Is Body Weight Gain, Observation Day 5 for CC(=N)NCc1ccc(CC(NC(=O)C(CC(C)C)C(CC(C)C)C(=O)NO)C(=O)NCCO)cc1 (racemic) at or above 0.8?
Found: 1 (yes)

Lookup: Is Body Weight Gain, Observation Day 5 for CNC(=O)C(CCCCNC(C)=N)NC(=O)C(CC(C)C)C(C)C(=O)NO (racemic) at or above 0.8?
Found: 1 (yes)

Lookup: Is Body Weight Gain, Observation Day 5 for C[C@]12C=CC(=O)C=C1CC[C@@H]1[C@@H]2[C@@H](O)C[C@@]2(C)[C@H]1CC[C@]2(O)C(=O)CO [Prednisolone, reference compound] at or above 0.8?
Found: 0 (no)

Lookup: Is Body Weight Gain, Observation Day 5 for CNC(=O)C(CCCN)NC(=O)C(CC(C)C)C(CCCc1ccc(NC(=N)N)cc1)C(=O)NO (racemic) at or above 0.8?
Found: 1 (yes)
